System: MALME-3M melanoma
test_summary: NCI tumour cell line growth inhibition, 48 h; in the data active means GI50 below about 0.43 µM; inactive means the rest
Form entry, call: pick from Yes (active), No (inactive)

{"columns": ["compound", "group"],
 "data": [
  ["CN(c1ccc(NC(=O)Nc2c(Cl)cccc2Cl)cc1)c1ccnc(Nc2cccc(CS(C)(=O)=O)c2)n1", "No"],
  ["O=C(O)c1ccc(CN2CCC(CN[C@@H]3C[C@H]3c3ccccc3)CC2)cc1", "No"],
  ["CCN1C(=O)/C(=C/c2c(Cl)[nH]c3cc(C)c(OC)cc23)c2ccccc21", "No"],
  ["Cn1c(Cl)c(/C=C2/C(=O)Nc3ccccc32)c2ccccc21", "Yes"],
  ["CCN1C(=O)c2ccc3c4c(ccc(c24)C1=O)C(=O)N(CCCNCc1ccccc1OC)C3=O", "Yes"],
  ["COc1cc(Nc2ncccc2C(=O)Nc2nc3ccc(F)cc3s2)cc(OC)c1OC", "No"],
  ["O=C1C=CC(=O)C2C1C1(Cl)C(Cl)=C(Cl)C2(Cl)C1(Cl)Cl (stereo unspecified)", "No"],
  ["CCCOC(=O)N[C@H]1CCc2c(Cl)c(OC)c(OC)c(OC)c2-c2ccc(SC)c(=O)cc21", "Yes"],
  ["CCCCCCCCn1ccc2cc(NC(=O)Cn3cc(CN4CCCCCC4)nn3)ccc21", "No"],
  ["COc1cccc2c1C(=N)c1c(O)c3c(c(O)c1C2=O)C[C@@](O)(C(C)=O)C[C@@H]3O[C@H]1C[C@H](N)[C@H](O)[C@H](C)O1", "Yes"]
]}

Shifting focus to the compound that follows.
**Query** Each compound tested received a call. Report the one for CS(=O)(=O)CCNCc1coc(-c2ccc3ncnc(Nc4ccc(OCc5ccccc5)cc4)c3c2)c1 .
**Result** No

###

Test system: M14 melanoma
test_summary: NCI tumour cell line growth inhibition, 48 h
Reported TGI values follow for various compounds
Please respond with the number in µM and leave the unit unwritten.

Worked examples, 2 compounds total:
{"columns": ["compound", "TGI / µM"],
 "data": [
  ["CN(C)Cc1cc(C(F)(F)F)ccc1C(O)(c1ccccc1)c1ccccc1", 25.3],
  ["CC(=O)Oc1cc2c(cc1OC(C)=O)C1(C)CCC2(C)c2cc(OC(C)=O)c(OC(C)=O)cc21", 90.5]
]}

We now examine a further compound.
**Query** Requested read-out: TGI. Entry: NC(CSC(c1ccccc1)(c1ccccc1)c1ccccc1)C(=O)NCC(=O)O (stereo unspecified)
**Result** 23.2

###

Reported TGI values follow for various molecules
Test system: LOX IMVI melanoma
test_summary: NCI tumour cell line growth inhibition, 48 h

{"columns": ["molecule", "TGI"],
 "data": [
  ["Cc1ccc(C(=O)N/N=C(\\N=Nc2cccc([N+](=O)[O-])c2)c2ccc(N(CCC#N)CCC#N)cc2C)cc1", "> 100 µM"],
  ["COc1ccc(Cn2c(=O)c(OC)c(C)c3cc4ccccc4cc32)cc1", "41.7 µM"],
  ["CNC(=O)OCc1c(COC(=O)NC)c(-c2ccc(-c3ccccc3)cc2)n(C)c1C", "11.7 µM"],
  ["Nc1ncc(-c2cnn(C3CCNCC3)c2)cc1-c1nc2cc(Cl)ccc2o1", "3.07 µM"]
]}

We now examine a further molecule.
**Query** Request - read-out TGI | tested on LOX IMVI melanoma | molecule O=C(NC(=O)c1c(F)cccc1F)Nc1cccc(Oc2ncc(Cl)cn2)c1
**Result** > 100 µM
